# ASSAYED_TARGET: Vitamin D3 receptor (Homo sapiens)
# EXPERIMENT_SUMMARY: qHTS assay to identify small molecule antagonists of the vitamin D receptor (VDR) signaling pathway (AID 743223)
# MEASUREMENT_PARAMETERS: VDR-UAS-bla HEK293T, beta-lactamase FRET ratio, 16 h; series mostly up to 61 µM
Records with an inconclusive call do not appear. Activity calls are given as the source filed them. Calls follow the shape of the dose curve; as a rule, active = well fitted inhibition curve with a large enough effect in the signal ratio in the repeat runs (not every such curve was filed as active); inconclusive = weak or mixed curves, or effect the other way; inactive = no such curve, though single readings can be large or run the other way; the % refers to the signal ratio.
API: response.call in active, inactive

Sample answers from the record:
1) N#CC1(c2ccc(F)cc2)CCC(=O)CC1    inactive
2) NNc1nc(-c2ccc(N)cc2)cs1    inactive
3) CC(C)c1ccc2c(c1)CC[C@H]1[C@](C)(CN)CCC[C@]21C    active
4) O=[N+]([O-])c1ccccc1Nc1ccccc1    inactive
5) CSc1ccc(C(=O)c2[nH]c(=O)[nH]c2C)cc1    inactive

Ask: Which outcome did this test record for the compound `COc1cc(-c2ccc(N=C=O)c(OC)c2)ccc1N=C=O` ?
Result: inactive
